Tested on: purified binding protein
Method Notes: competition for binding of labelled human/bovine/porcine IGF-1 to purified binding protein
Setup Conditions: competition with labelled human/bovine/porcine IGF-1
Source text: This apparent discrepancy is caused by the myoblasts producing a binding protein in addition to the receptor. This binding protein selectively binds those IGF-1 peptides that have a glutamic acid residue at position 3 from the N-terminal, thus preventing the peptide binding to the cell receptor. This interpretation is established by the following results [determined by the method of Martin and Baxter, J. Biol, Chem. 261: 8754-8760, (1986)] with purified binding proteins (see Table 2).
Where no end group is shown, it is not given here.
Potency for binding to the protein where hIGF-1 = 100% values by entry
Measured Metric: Potency for binding to the protein where hIGF-1 = 100% (%)

Gly--Pro--Lys--Thr--Leu--Cys--: IGF-1 analogue: glutamic acid at position 3 substituted with lysine (GPKTLC; not fully specified (C-terminus); printed as Gly—Pro—Lys—Thr—Leu—Cys—; ends and bridges not checked; also: N-terminal part of IGF-1 analogue, rest of chain not shown)
0.1
Gly--Pro--Glu--Thr--Leu--Cys--: pure human/bovine/porcine insulin-like growth factor-1, full 70-residue sequence (b3) (GPETLC; not fully specified (C-terminus); ends and bridges not checked; also: N-terminal part of IGF-1, rest of chain not shown) [reference compound]
100
Gly--Pro--Gly--Gly--Leu--Cys--: IGF-1 analogue: glutamic acid 3 substituted with glycine and threonine 4 with glycine (GPGGLC; not fully specified (C-terminus); printed as Gly—Pro—Gly—Gly—Leu—Cys—; ends and bridges not checked; also: N-terminal part of IGF-1 analogue, rest of chain not shown)
0.1

----------
Tested on: purified binding protein
Method Notes: competition for binding of labelled human/bovine/porcine IGF-1 to purified binding protein
Setup Conditions: competition with labelled human/bovine/porcine IGF-1
Where no end group is shown, it is not given here.
Measured Metric: Potency for binding to the protein where hIGF-1 = 100% (%)

Gly--Pro--Leu--Thr--Leu--Cys--: IGF-1 analogue: glutamic acid at position 3 substituted with leucine (GPLTLC; not fully specified (C-terminus); printed as Gly—Pro—Leu—Thr—Leu—Cys—; ends and bridges not checked; also: N-terminal part of IGF-1 analogue, rest of chain not shown)
0.5
Gly--Pro--Gly--Thr--Leu--Cys--: IGF-1 analogue: glutamic acid at position 3 substituted with glycine (GPGTLC; not fully specified (C-terminus); printed as Gly—Pro—Gly—Thr—Leu—Cys—; ends and bridges not checked; also: N-terminal part of IGF-1 analogue, rest of chain not shown)
0.5
Gly--Pro--Gln--Thr--Leu--Cys--: IGF-1 analogue: glutamic acid at position 3 substituted with glutamine (GPQTLC; not fully specified (C-terminus); printed as Gly—Pro—Gln—Thr—Leu—Cys—; ends and bridges not checked; also: N-terminal part of IGF-1 analogue, rest of chain not shown)
1.0
